Target: KRAS G12D (Homo sapiens (Human), UniProt P01116, G12D)
Sequence (P01116-2 other isoform, or with tags, fused parts or gaps G12D): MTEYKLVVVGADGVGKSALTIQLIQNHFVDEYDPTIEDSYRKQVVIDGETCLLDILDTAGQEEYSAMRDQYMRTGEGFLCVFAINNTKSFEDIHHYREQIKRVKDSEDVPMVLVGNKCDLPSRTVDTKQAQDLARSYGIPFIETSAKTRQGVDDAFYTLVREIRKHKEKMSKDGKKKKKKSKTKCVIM
Test: KRAS G12D Nucleotide Exchange Assay (HTRF)
Type: biochemical
Conditions: recombinant GDP-loaded KRAS G12D (20 nM), BIODIPY-labeled GDP (400 nM), recombinant SOS (10 nM), HTRF signal
Each record here notes measured KRASG12D Nucleotide Exchange Assay (IC50, µM).

Solved cases (5 shown):
# molecule, reported.result
rows = [
    ("CCc1cccc2cc(O)cc(-c3c(Cl)cc4c(N5CC[C@H]6CC[C@@H](C5)N6)nc(OC[C@@]56CCCN5C[C@H](F)C6)nc4c3F)c12 (single isomer, unassigned) [Example 8-2]", "1.3 µM"),
    ("CN1CCC[C@@]2(COc3nc(N4CC[C@H]5CC[C@@H](C4)N5)c4ccc(-c5cc(O)cc6ccccc56)c(F)c4n3)CCC[C@@H]12", "0.04 µM"),
    ("CN1CCC[C@@]2(COc3nc(N4CC[C@H]5CC[C@@H](C4)N5)c4ccc(-c5cc(O)cc6cccc(F)c56)c(F)c4n3)CCC[C@@H]12", "0.03 µM"),
    ("Oc1cc(-c2c(Cl)cc3c(N4CC[C@H]5CC[C@@H](C4)N5)nc(OC[C@@]45CCCN4C[C@H](F)C5)nc3c2F)c2c(F)cccc2c1 (single isomer, unassigned)", "0.07 µM"),
    ("Cc1cc(N)nc(-c2c(Cl)cc3c(N4CC[C@H]5CC[C@@H](C4)N5)nc(OCC4(CN(C)C)CC4)nc3c2F)c1C(F)(F)F", "0.007 µM"),
]

Check the records and state KRASG12D Nucleotide Exchange Assay (IC50, µM) for CCc1cccc2cc(O)cc(-c3c(Cl)cc4c(N5CC[C@H]6CC[C@@H](C5)N6)nc(OC[C@]56CCCN5C[C@@H](F)C6)nc4c3F)c12 (single isomer, unassigned) [Example 8-4]
7.7 µM

Check the records and state KRASG12D Nucleotide Exchange Assay (IC50, µM) for `CN1CCC[C@H]1COc1nc(N2CCN3CCC2CC3)c2cc(Cl)c(-c3cc(O)cc4ccccc34)c(F)c2n1`
13.66 µM

Check the records and state KRASG12D Nucleotide Exchange Assay (IC50, µM) for Oc1cc(-c2c(Cl)cc3c(N4CC[C@H]5CC[C@@H](C4)N5)nc(OC[C@@]45CCCN4C[C@H](F)C5)nc3c2F)c2ccccc2c1 (single isomer, unassigned) [Example 8-8]
0.3 µM

Check the records and state KRASG12D Nucleotide Exchange Assay (IC50, µM) for `Cc1cc(N)nc(-c2c(Cl)cc3c(N4CC[C@H]5CC[C@@H](C4)N5)nc(OCC4(CN5CCCCC5)CC4)nc3c2F)c1C(F)(F)F`
0.02 µM

Check the records and state KRASG12D Nucleotide Exchange Assay (IC50, µM) for `Oc1cc(-c2c(Cl)cc3c(N4CC[C@H]5CC[C@@H](C4)N5)nc(OC[C@]45CCCN4C[C@H](F)C5)nc3c2F)c2ccccc2c1`
<0.002 µM

Check the records and state KRASG12D Nucleotide Exchange Assay (IC50, µM) for `Cc1cc(N)nc(-c2c(Cl)cc3c(N4CC[C@H]5CC[C@@H](C4)N5)nc(OC[C@@]45CCCN4C[C@H](F)C5)nc3c2F)c1C(F)(F)F`
0.005 µM

* * *

Molecular target: KRAS G12D (Homo sapiens (Human), UniProt P01116, G12D)
Test: KRAS G12D RAF Disruption Assay (HTRF)
Type: biochemical
Conditions: recombinant GMPPNP-loaded KRAS G12D (5 nM), GST-RAF1 RBD (9 nM), HTRF signal
Each record here notes measured KRASG12D RAF Disruption Assay (IC50, µM).

Solved cases (10 shown):
# compound, KRASG12D RAF Disruption Assay (IC50, µM)
data = [
    ("Cc1cc(N)nc(-c2c(Cl)cc3c(N4CC[C@H]5CC[C@@H](C4)N5)nc(OC[C@]45CCCN4C[C@@H](F)C5)nc3c2F)c1C(F)(F)F", "0.43 µM"),
    ("CO[C@@H]1C[C@@H](COc2nc(N3CC[C@H]4CC[C@@H](C3)N4)c3cc(Cl)c(-c4nc(N)cc(C)c4C(F)(F)F)c(F)c3n2)N(C)C1", "1.81 µM"),
    ("CCc1cccc2cc(O)cc(-c3c(Cl)cc4c(N5CC[C@H]6CC[C@@H](C5)N6)nc(OC[C@@]56CCCN5C[C@H](F)C6)nc4c3F)c12 (single isomer, unassigned) [Example 8-1]", "5.7 µM"),
    ("Cc1cc(N)nc(-c2ccc3c(N4CC[C@H]5CC[C@@H](C4)N5)nc(OC[C@]45CCCN4C[C@H](F)C5)nc3c2F)c1C(F)(F)F", "80.0 µM"),
    ("Cc1cc(N)nc(-c2c(Cl)cc3c(N4CC[C@H]5CC[C@@H](C4)N5)nc(OC[C@@]45CCCN4C[C@H](F)C5)nc3c2F)c1C(F)(F)F", "0.06 µM"),
    ("Oc1cc(-c2c(Cl)cc3c(N4CC[C@H]5CC[C@@H](C4)N5)nc(OC[C@@]45CCCN4C[C@H](F)C5)nc3c2F)c2c(F)cccc2c1 (single isomer, unassigned) [Example 8-5]", "0.07 µM"),
    ("CCc1cccc2cc(O)cc(-c3ccc4c(N5CC[C@H]6CC[C@@H](C5)N6)nc(OC[C@@]56CCCN5C[C@H](F)C6)nc4c3F)c12", "3.2 µM"),
    ("Cc1cc(N)nc(-c2c(Cl)cc3c(N4CCC5CCC(C4)N5)nc(OC[C@@H]4CCCN4C)nc3c2F)c1C(F)(F)F (stereo partly shown)", "6.19 µM"),
    ("Oc1cc(-c2ccc3c(N4CC[C@H]5CC[C@@H](C4)N5)nc(OC[C@@]45CCCN4C[C@H](F)C5)nc3c2F)c2c(F)cccc2c1", "1.0 µM"),
    ("Cc1cc(N)nc(-c2c(Cl)cc3c(N4CC[C@H]5CC[C@@H](C4)N5)nc(OCC4(CN(C)C)CC4)nc3c2F)c1C(F)(F)F", "1.0 µM"),
]

Give the observed KRASG12D RAF Disruption Assay (IC50, µM) of `CN1CCC[C@@]2(COc3nc(N4CC[C@H]5CC[C@@H](C4)N5)c4ccc(-c5cc(O)cc6cccc(F)c56)c(F)c4n3)CCC[C@@H]12` for KRAS G12D (Homo sapiens (Human), UniProt P01116, G12D).
2.0 µM

Give the observed KRASG12D RAF Disruption Assay (IC50, µM) of Oc1cc(-c2c(Cl)cc3c(N4CC[C@H]5CC[C@@H](C4)N5)nc(OC[C@@]45CCCN4C[C@H](F)C5)nc3c2F)c2c(F)cccc2c1 (single isomer, unassigned) [Example 8-6] for KRAS G12D (Homo sapiens (Human), UniProt P01116, G12D).
3.6 µM

Give the observed KRASG12D RAF Disruption Assay (IC50, µM) of Cc1cc(N)nc(-c2c(Cl)cc3c(N4CC[C@H]5CC[C@@H](C4)N5)nc(OCC4(CN5CCCC(F)C5)CC4)nc3c2F)c1C(F)(F)F (stereo partly shown) [Example 10-10] for KRAS G12D (Homo sapiens (Human), UniProt P01116, G12D).
2.4 µM

Give the observed KRASG12D RAF Disruption Assay (IC50, µM) of Cc1cc(N)nc(-c2c(Cl)cc3c(N4CC[C@H]5CC[C@@H](C4)N5)nc(OC[C@@]45CCCN4C[C@@H](OC(F)F)C5)nc3c2F)c1C(F)(F)F (single isomer, unassigned) [Example 10-6] for KRAS G12D (Homo sapiens (Human), UniProt P01116, G12D).
>100 µM

Give the observed KRASG12D RAF Disruption Assay (IC50, µM) of Oc1cc(-c2c(Cl)cc3c(N4CC[C@H]5CC[C@@H](C4)N5)nc(OC[C@@]45CCCN4C[C@H](F)C5)nc3c2F)c2ccccc2c1 (single isomer, unassigned) [Example 8-8] for KRAS G12D (Homo sapiens (Human), UniProt P01116, G12D).
15.5 µM

Give the observed KRASG12D RAF Disruption Assay (IC50, µM) of `Nc1cc2cccc(F)c2c(-c2ccc3c(N4CC[C@H]5CC[C@@H](C4)N5)nc(OC[C@@]45CCCN4C[C@H](F)C5)nc3c2F)n1` for KRAS G12D (Homo sapiens (Human), UniProt P01116, G12D).
43.1 µM

* * *

Biological target: KRAS G12D (Homo sapiens (Human), UniProt P01116, G12D)
Experiment: KRAS G12D Nucleotide Exchange Assay (HTRF)
Assay type: biochemical
Conditions: recombinant GDP-loaded KRAS G12D (20 nM), BIODIPY-labeled GDP (400 nM), recombinant SOS (10 nM), HTRF signal
Procedure: Recombinant GDP-loaded KRAS G12D (20 nM) was treated with compound at room temperature for 20 minutes in assay buffer (10 mM Hepes pH 7.4, 150 mM NaCl, 5 mM MgCl2, 0.0025% Igepal-CA630, 0.05% BSA, 1 mM DTT, 0.5 nM SA-Tb). BIODIPY-labeled GDP (400 nM) and recombinant SOS (10 nM) were added, and the reaction was incubated for 30 minutes.
result.type: KRASG12D Nucleotide Exchange Assay (IC50, µM)

# compound, reported.result
records = [
    ("Cc1cc(N)nc(-c2c(Cl)cc3c(N4CC[C@H]5CC[C@@H](C4)N5)nc(OC[C@@]45C[C@@H](F)CN4CC4(CC4)C5)nc3c2F)c1C(F)(F)F [Example 13-1]", "0.01 µM"),
    ("Cc1cc(N)nc(-c2c(Cl)cc3c(N4CC[C@H]5CC[C@@H](C4)N5)nc(OC[C@]45CCC[C@H]4N(C)CCC5)nc3c2F)c1C(F)(F)F [Example 3]", "<0.002 µM"),
    ("Cc1cc(N)nc(-c2c(Cl)cc3c(N4CC[C@H]5CC[C@@H](C4)N5)nc(OC[C@]45CCCN4C[C@H](F)C5)nc3c2F)c1C(F)(F)F [Example 4-3]", "0.02 µM"),
]

Check the records and state KRASG12D Nucleotide Exchange Assay (IC50, µM) for Oc1cc(-c2ccc3c(N4CC[C@H]5CC[C@@H](C4)N5)nc(OC[C@@]45CCCN4C[C@H](F)C5)nc3c2F)c2ccccc2c1 [Example 11-7]
0.06 µM

Check the records and state KRASG12D Nucleotide Exchange Assay (IC50, µM) for CN1CCC[C@H]1COc1nc(N2CC[C@H]3CC[C@@H](C2)N3)c2cc(Cl)c(-c3cc(O)cc4ccccc34)c(F)c2n1 [Example 6]
0.01 µM

Check the records and state KRASG12D Nucleotide Exchange Assay (IC50, µM) for Cc1cc(N)nc(-c2c(Cl)cc3c(N4CC5CCC(C4)NC5)nc(OC[C@@H]4CCCN4C)nc3c2F)c1C(F)(F)F (stereo partly drawn) [Example 2-2]
0.14 µM

Check the records and state KRASG12D Nucleotide Exchange Assay (IC50, µM) for Cc1cc(N)nc(-c2c(Cl)cc3c(N4CC[C@H]5CC[C@@H](C4)N5)nc(OCC4(CN5CCOCC5)CC4)nc3c2F)c1C(F)(F)F [Example 10-7]
0.06 µM

The origin of these recorded values is patent US20240217982A1.
